# target_entity: E. coli CsgA (Escherichia coli)
# Construct: made in house; host or cells: E. coli NEB 3016 slyD::kan, pET11d
# Sequence (P28307 23-151): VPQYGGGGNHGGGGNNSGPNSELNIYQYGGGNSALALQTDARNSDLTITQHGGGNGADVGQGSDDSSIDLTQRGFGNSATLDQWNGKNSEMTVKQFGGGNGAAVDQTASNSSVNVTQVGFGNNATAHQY
# test_description: In vitro ThioflavinT assay of CsgA aggregation (CsgA ThT Assay)
# Assay type: biochemical
# test_parameters: mean AUC as % of DMSO control; CsgA 10 μM, black plates; compound 25 μM; 1005 minutes
Criterion: CsgA ThT Assay (10 μM CsgA) % Control AUC at 1005 minutes, 25 μM strictly less than 40%. Met: Condition met. Not met: Condition not met.

compound: CCCN1CC(C(=O)O)n2c(c(-c3cccc(C(F)(F)F)c3)c(Cc3cccc4ccccc34)cc2=O)S1(=O)=O (single isomer, unassigned) [Compound 016b]
assigned_class: Condition met
--
compound: CCCCCN1CC(C(=O)O)n2c(c(-c3cccc(C(F)(F)F)c3)c(Cc3cccc4ccccc34)cc2=O)S1(=O)=O (single isomer, unassigned) [Compound 025b]
assigned_class: Condition not met
--
compound: O=C(O)C1CSc2c(-c3cccc(C(F)(F)F)c3)c(Cc3cccc4ccccc34)cc(=O)n21 (single isomer, unassigned) [Compound 011b]
assigned_class: Condition not met
--
compound: CCCCN1CC(C(=O)O)n2c(c(-c3cccc(C(F)(F)F)c3)c(Cc3cccc4ccccc34)cc2=O)S1(=O)=O (single isomer, unassigned) [Compound 021b]
assigned_class: Condition met
--
compound: CCN1CC(C(=O)O)n2c(c(-c3cccc(C(F)(F)F)c3)c(Cc3cccc4ccccc34)cc2=O)S1(=O)=O (single isomer, unassigned) [Compound 015b]
assigned_class: Condition met
--
compound: Nc1c(Cc2cccc3ccccc23)c(-c2cccc(C(F)(F)F)c2)c2n(c1=O)C(C(=O)O)CS2 (single isomer, unassigned) [Compound 020b]
assigned_class: Condition met
--
compound: O=C(O)C1CS(=O)(=O)c2c(-c3cccc(C(F)(F)F)c3)c(Cc3cccc4ccccc34)cc(=S)n21 (single isomer, unassigned) [Compound 014b]
assigned_class: Condition not met
--
compound: O=C(O)C1CS(=O)(=O)c2c(-c3cccc(C(F)(F)F)c3)c(Cc3cccc4ccccc34)cc(=S)n21 (single isomer, unassigned) [Compound 014a]
assigned_class: Condition met

* * *

# target_entity: human α-synuclein (Homo sapiens)
# Construct: the full-length gene for untagged human α-synuclein was inserted; made in house; host or cells: E. coli BL21(DE3), plasmid derived from pT7 or pET11a
# test_description: Cell-free Thioflavin T assay of α-synuclein aggregation (αSyn ThT Assay)
# Format: biochemical
# test_parameters: αSyn 50 μM; compounds at 100 μM; class symbol; read-out: αSyn ThT Assay % Inhibition (activity range)
Listing of recorded inhibition at 100 µM by entry.
observation_type: inhibition at 100 µM

compound: O=C(O)CCCN1CC(C(=O)O)n2c(c(-c3cccc(C(F)(F)F)c3)c(Cc3cccc4ccccc34)cc2=O)S1(=O)=O (stereo not shown)
reported: -10 to 10%
//
compound: Nc1c(Cc2ccc(N)c3ccccc23)c(-c2cccc(C(F)(F)F)c2)c2n(c1=O)C(C(=O)O)CNS2(=O)=O (stereo not shown)
reported: 11 to 30%
//
compound: CN1CC(C(=O)O)n2c(c(-c3cccc(C(F)(F)F)c3)c(Cc3cccc4ccccc34)c(NCc3ccccc3)c2=O)S1(=O)=O (stereo not shown)
reported: 31 to 60%
//
compound: O=C(O)C1CSc2c(-c3cccc(C(F)(F)F)c3)c(Cc3cccc4ccccc34)c(CO)c(=O)n21 (stereo not shown)
reported: 31 to 60%

Values were extracted from patent US20230131899A1.
